# Experimental system: Rho-associated protein kinase 2 (Homo sapiens, UniProt O75116)
# Sequence (O75116 whole entry): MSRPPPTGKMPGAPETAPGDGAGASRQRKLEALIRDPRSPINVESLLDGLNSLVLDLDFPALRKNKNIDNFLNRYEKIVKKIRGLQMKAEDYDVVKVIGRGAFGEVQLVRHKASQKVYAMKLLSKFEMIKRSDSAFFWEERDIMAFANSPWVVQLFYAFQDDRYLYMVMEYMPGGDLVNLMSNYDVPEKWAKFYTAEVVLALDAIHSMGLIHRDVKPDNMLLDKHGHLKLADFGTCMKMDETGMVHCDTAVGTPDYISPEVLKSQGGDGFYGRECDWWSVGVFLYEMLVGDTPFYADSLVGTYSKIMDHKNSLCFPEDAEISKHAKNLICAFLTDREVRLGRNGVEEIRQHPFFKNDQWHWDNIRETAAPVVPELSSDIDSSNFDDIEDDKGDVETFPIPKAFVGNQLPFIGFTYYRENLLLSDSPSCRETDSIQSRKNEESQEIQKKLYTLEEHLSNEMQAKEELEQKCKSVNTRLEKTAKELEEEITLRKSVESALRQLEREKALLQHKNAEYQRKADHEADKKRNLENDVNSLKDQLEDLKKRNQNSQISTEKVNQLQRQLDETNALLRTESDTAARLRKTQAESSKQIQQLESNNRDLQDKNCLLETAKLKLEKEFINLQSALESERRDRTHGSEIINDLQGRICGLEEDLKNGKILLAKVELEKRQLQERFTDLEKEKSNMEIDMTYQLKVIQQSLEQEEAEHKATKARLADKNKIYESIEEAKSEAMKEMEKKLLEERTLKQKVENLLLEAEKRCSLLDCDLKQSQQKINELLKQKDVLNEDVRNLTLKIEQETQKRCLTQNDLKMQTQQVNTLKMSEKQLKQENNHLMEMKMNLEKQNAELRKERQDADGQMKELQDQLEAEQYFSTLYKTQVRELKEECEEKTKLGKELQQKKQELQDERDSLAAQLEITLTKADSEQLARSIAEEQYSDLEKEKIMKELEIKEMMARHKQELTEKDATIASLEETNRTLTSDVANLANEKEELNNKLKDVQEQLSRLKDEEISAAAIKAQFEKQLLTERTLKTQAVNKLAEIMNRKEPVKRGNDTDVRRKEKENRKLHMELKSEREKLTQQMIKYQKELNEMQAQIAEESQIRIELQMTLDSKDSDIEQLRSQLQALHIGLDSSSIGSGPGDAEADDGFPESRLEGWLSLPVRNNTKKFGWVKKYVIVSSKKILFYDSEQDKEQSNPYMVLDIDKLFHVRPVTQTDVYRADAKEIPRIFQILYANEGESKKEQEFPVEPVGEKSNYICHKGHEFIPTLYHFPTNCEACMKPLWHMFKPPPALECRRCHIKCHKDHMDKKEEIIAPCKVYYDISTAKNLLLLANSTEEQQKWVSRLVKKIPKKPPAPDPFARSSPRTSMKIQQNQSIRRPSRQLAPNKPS
# Method notes: Inhibition of ROCK2 (unknown origin) using 33P-ATP as substrate and measured after 120 mins by radiometric analysis

# Molecule, IC50
records = [
    ("O=C(OCC1CCCO1)c1cccc(CN2CCCC(Nc3ccc4[nH]ncc4c3)C2)c1 (stereo unspecified)", "3 nM"),
]

---

# Experimental system: Nicotinamide phosphoribosyltransferase (Homo sapiens, UniProt P43490)
# Sequence (P43490 whole entry): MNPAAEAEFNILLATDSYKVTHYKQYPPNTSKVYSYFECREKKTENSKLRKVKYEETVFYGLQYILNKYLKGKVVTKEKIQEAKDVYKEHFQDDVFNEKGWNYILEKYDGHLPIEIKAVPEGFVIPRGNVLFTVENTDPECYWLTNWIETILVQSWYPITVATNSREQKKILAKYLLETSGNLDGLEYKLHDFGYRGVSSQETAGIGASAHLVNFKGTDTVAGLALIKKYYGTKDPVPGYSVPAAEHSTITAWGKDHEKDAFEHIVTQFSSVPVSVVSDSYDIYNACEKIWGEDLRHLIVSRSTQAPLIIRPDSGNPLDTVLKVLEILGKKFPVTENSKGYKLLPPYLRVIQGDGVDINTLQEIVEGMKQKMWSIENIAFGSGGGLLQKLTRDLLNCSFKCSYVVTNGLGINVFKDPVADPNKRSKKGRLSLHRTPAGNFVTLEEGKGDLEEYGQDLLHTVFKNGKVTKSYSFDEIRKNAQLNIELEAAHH
# Method notes: Inhibition of recombinant human C-terminally-His tagged NAMPT incubated for 2 to 3 hrs by TR-FRET assay
pIC50: −log10 of the molar value.
The entries below are paired with their reported pIC50.
Measured parameter: pIC50

# Smiles code, Experimental value
records = [
    ("O=C(Nc1ccc(-c2n[nH]c(=O)c3c2CCCC3)cc1)N1Cc2ccc(Cl)cc2C1", 7.36),
    ("O=C(Nc1ccc(-c2n[nH]c(=O)c3c2CCCC3)cc1)N1Cc2ccc(F)cc2C1", 7.35),
]

---

# Experimental system: Rho-associated protein kinase 2 (Homo sapiens, UniProt O75116)
# Method notes: Inhibition of ROCK2 (unknown origin) using STK2 as substrate incubated for 4 hrs by HTRF assay
pIC50: −log10 of the molar value.

# Smiles code, Qual, pIC50
measured = [
    ("COc1cccc(CN(CCN(C)C)C(=O)c2n[nH]c3cc(-c4cn[nH]c4)ccc23)c1", ">", 9.00),
    ("COc1cccc(CNC(=O)c2nn(C)c3cc(-c4cn[nH]c4)ccc23)c1", ">", 9.00),
    ("COc1cccc(CNC(=O)c2cc3cc(-c4cn[nH]c4)ccc3[nH]2)c1", "=", 7.77),
    ("COc1cccc(CNC(=O)c2c[nH]c3ccc(-c4cn[nH]c4)cc23)c1", "=", 7.17),
    ("COc1cccc(CNC(=O)c2n[nH]c3cc(-c4cn[nH]c4)ccc23)c1", ">", 9.00),
]

---

# Experimental system: UniProtKB Q62868
# Sequence (Q62868 whole entry): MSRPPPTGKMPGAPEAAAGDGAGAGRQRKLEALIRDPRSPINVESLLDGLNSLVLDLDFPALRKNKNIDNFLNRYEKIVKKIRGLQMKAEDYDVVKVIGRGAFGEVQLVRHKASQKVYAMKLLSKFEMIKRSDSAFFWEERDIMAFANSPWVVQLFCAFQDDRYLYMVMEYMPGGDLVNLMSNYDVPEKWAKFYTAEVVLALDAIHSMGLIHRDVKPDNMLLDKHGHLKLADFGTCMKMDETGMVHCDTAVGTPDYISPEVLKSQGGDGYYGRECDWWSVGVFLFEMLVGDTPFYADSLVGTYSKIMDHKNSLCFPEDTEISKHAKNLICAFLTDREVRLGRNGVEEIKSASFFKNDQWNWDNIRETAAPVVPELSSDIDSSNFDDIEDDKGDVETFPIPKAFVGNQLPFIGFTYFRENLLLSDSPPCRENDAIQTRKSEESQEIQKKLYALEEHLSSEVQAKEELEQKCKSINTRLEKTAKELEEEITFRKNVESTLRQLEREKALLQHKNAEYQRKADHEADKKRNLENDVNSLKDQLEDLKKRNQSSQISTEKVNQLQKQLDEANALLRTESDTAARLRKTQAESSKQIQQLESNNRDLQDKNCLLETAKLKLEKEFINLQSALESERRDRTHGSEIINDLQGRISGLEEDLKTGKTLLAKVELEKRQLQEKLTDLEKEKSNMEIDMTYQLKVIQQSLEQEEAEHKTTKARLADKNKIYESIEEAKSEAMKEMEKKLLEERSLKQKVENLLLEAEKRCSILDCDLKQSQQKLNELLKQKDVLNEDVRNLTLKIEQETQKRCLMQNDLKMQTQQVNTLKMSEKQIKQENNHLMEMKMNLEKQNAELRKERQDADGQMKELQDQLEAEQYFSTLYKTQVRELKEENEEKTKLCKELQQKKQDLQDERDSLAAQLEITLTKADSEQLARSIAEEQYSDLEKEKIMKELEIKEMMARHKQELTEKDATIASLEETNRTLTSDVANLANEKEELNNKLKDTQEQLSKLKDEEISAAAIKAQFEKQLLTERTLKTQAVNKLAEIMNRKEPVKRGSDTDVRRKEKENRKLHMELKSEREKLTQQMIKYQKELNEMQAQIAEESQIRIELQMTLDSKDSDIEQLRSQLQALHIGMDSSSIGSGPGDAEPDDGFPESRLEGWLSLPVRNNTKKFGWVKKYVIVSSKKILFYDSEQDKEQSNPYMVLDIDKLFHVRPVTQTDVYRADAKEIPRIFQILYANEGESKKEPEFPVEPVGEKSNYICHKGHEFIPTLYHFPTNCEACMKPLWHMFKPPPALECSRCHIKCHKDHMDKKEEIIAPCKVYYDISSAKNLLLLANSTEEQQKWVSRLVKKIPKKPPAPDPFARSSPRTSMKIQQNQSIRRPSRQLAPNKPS
# Method notes: Inhibition of ROCK2 in rat A7R5 cells assessed as MLC phosphorylation at T18/S19 by ELISA
Measured parameter: IC50 (µM)

# Compound, Experimental system, Experimental value
rows = [
    ("O=C(OCC1CCCO1)c1cccc(CN2CCCC(Nc3ccc4[nH]ncc4c3)C2)c1 (stereo unspecified)", "UniProtKB Q62868", 0.24),
]

---

# Experimental system: Rho-associated protein kinase 2 (Homo sapiens, UniProt O75116)
# Method notes: Inhibition of ROCK2 (unknown origin)

# Compound, Qual, IC50 (nM)
records = [
    ("O=C(Cc1ccccc1Cl)Nc1ccc(-c2cn[nH]c2)cc1OCCN1CCCC1", "=", 9),
    ("O=C(NCc1c(Cl)cccc1Cl)Nc1ccc2[nH]ncc2c1", "=", 20),
    ("N#Cc1c[nH]c2nccc(Oc3c(F)cc(Nc4ccnc(N)n4)cc3F)c12", "=", 1),
    ("Cc1nnnn1-c1ccc(C(=O)NCc2cccc(C(=O)NC3=NC4CCN(C)CC4S3)c2)cc1 (stereo not drawn)", "=", 6),
    ("NC(=O)c1cc(F)c(N[C@H]2CC[C@H](N)CC2)cc1F", "=", 26),
    ("NC[C@@](O)(c1ccc(Cl)cc1)c1ccc(-c2cn[nH]c2)cc1", "<", 10),
    ("O=C(Nc1ccc(-c2cn[nH]c2)cc1)[C@@H]1CNC[C@H]1c1ccccc1", "=", 33),
    ("C[C@@H](N)c1ccc(C(=O)Nc2ccncc2)cc1", "=", 200),
]

---

# Experimental system: UniProt:O75116
# Method notes: Inhibition of ROCK2 (unknown origin) using STK2 as substrate incubated for 4 hrs by HTRF assay
Measured parameter: IC50 (nM)

# Smiles code, Experimental system, Qual, Experimental value
measured = [
    ("COc1cccc(CNC(=O)c2c[nH]c3cc(-c4cn[nH]c4)ccc23)c1", "UniProt:O75116", "<", 1),
    ("COc1cccc(CNC(=O)c2n[nH]c3ccc(-c4cn[nH]c4)cc23)c1", "UniProt:O75116", "=", 67),
    ("COc1cccc(CN(C(=O)c2n[nH]c3cc(-c4cn[nH]c4)ccc23)C2CC2)c1", "UniProt:O75116", "=", 6),
    ("COc1cccc(CNC(=O)c2cc3ccc(-c4cn[nH]c4)cc3[nH]2)c1", "UniProt:O75116", "=", 1.6),
    ("COc1cccc(CNC(=O)c2nc3ccc(-c4cn[nH]c4)cc3[nH]2)c1", "UniProt:O75116", "=", 4),
]

---

# Experimental system: cAMP-dependent protein kinase (PKA) (Homo sapiens, UniProt P22694+P17612+P22612)
# Method notes: Inhibition of PKA (unknown origin)
# Type: protein assay

# Smiles code, Experimental system, Measurement unit, Qual, IC50
rows = [
    ("COc1cccc(CN(C(=O)c2n[nH]c3cc(-c4cn[nH]c4)ccc23)C2CC2)c1", "cAMP-dependent protein kinase (PKA) (Homo sapiens, UniProt P22694+P17612+P22612)", "µM", ">", 20),
    ("COc1cccc(CNC(=O)c2c[nH]c3cc(-c4cn[nH]c4)ccc23)c1", "cAMP-dependent protein kinase (PKA) (Homo sapiens, UniProt P22694+P17612+P22612)", "µM", "=", 3.34),
    ("COc1cccc(CNC(=O)c2nn(C)c3cc(-c4cn[nH]c4)ccc23)c1", "cAMP-dependent protein kinase (PKA) (Homo sapiens, UniProt P22694+P17612+P22612)", "µM", "=", 1.52),
    ("COc1cccc(CNC(=O)c2nc3ccc(-c4cn[nH]c4)cc3[nH]2)c1", "cAMP-dependent protein kinase (PKA) (Homo sapiens, UniProt P22694+P17612+P22612)", "µM", "=", 1.53),
    ("COc1cccc(CNC(=O)c2n[nH]c3cc(-c4cn[nH]c4)ccc23)c1", "cAMP-dependent protein kinase (PKA) (Homo sapiens, UniProt P22694+P17612+P22612)", "µM", "=", 3.34),
    ("COc1cccc(CN(CCN(C)C)C(=O)c2n[nH]c3cc(-c4cn[nH]c4)ccc23)c1", "cAMP-dependent protein kinase (PKA) (Homo sapiens, UniProt P22694+P17612+P22612)", "µM", "=", 0.184),
    ("O=C(Nc1ccc(-c2cn[nH]c2)cc1)OCc1ccccc1", "cAMP-dependent protein kinase (PKA) (Homo sapiens, UniProt P22694+P17612+P22612)", "µM", ">", 20),
    ("COc1cccc(CNC(=O)c2[nH]c3cc(-c4cn[nH]c4)ccc3c2CN(C)C)c1", "cAMP-dependent protein kinase (PKA) (Homo sapiens, UniProt P22694+P17612+P22612)", "µM", "=", 1.51),
    ("NC[C@@](O)(c1ccc(Cl)cc1)c1ccc(-c2cn[nH]c2)cc1", "cAMP-dependent protein kinase (PKA) (Homo sapiens, UniProt P22694+P17612+P22612)", "µM", "<", 0.01),
    ("COc1cccc(CNC(=O)c2cc3ccc(-c4cn[nH]c4)cc3[nH]2)c1", "cAMP-dependent protein kinase (PKA) (Homo sapiens, UniProt P22694+P17612+P22612)", "µM", "=", 6.74),
    ("COc1cccc(CNC(=O)c2cc3cc(-c4cn[nH]c4)ccc3[nH]2)c1", "cAMP-dependent protein kinase (PKA) (Homo sapiens, UniProt P22694+P17612+P22612)", "µM", ">", 20),
]

---

# Experimental system: Rho-associated protein kinase 1 (Homo sapiens)
# Sequence (Q13464 whole entry): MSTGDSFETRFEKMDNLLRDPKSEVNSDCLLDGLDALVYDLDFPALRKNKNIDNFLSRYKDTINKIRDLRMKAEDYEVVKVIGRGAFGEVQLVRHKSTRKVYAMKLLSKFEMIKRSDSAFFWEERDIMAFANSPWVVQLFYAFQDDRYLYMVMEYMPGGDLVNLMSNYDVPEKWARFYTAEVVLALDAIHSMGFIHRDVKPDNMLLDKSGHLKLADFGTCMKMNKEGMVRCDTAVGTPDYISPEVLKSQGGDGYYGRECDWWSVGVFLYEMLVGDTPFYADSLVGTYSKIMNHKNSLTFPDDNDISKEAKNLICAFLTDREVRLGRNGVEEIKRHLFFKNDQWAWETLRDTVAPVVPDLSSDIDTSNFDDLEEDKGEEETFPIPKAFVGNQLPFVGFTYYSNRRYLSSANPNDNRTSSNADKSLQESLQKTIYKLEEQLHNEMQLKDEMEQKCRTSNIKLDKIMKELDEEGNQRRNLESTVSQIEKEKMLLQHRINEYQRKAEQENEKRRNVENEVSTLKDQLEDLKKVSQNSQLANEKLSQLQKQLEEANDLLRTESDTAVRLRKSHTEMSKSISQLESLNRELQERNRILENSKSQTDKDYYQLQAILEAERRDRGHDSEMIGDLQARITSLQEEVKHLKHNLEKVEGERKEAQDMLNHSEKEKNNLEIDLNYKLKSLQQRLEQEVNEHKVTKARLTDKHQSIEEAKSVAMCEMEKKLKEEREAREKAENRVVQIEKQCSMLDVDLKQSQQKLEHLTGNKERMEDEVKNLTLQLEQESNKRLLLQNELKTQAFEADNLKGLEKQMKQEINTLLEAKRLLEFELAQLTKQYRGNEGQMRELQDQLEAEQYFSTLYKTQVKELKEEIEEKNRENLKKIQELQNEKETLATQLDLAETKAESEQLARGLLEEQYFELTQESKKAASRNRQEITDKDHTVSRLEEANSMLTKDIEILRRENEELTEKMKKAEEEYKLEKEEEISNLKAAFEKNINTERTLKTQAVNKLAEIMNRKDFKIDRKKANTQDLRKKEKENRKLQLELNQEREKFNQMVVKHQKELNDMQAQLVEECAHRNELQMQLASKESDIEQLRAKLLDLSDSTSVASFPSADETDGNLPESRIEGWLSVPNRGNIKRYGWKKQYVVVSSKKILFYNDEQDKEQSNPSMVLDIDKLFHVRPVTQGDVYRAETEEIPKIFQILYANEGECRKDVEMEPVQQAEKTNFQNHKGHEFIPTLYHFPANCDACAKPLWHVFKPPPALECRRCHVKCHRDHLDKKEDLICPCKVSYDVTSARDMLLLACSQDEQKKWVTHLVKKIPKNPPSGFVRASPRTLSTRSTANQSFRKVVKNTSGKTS
# Method notes: Inhibition of ROCK1 (unknown origin)
Each record here notes measured IC50.

# Smiles code, Measurement unit, Qual, IC50
measured = [
    ("O=C(NCc1cccc(O)c1)Nc1nc(-c2ccncc2)cs1", "µM", "=", 0.0145),
    ("NC[C@@](O)(c1ccc(Cl)cc1)c1ccc(-c2cn[nH]c2)cc1", "µM", "<", 0.01),
]

---

# Method notes: Oral bioavailability of Wistar rat at 0.910 mg/kg and measured upto 7 hrs by HPLC/MS analysis
# Format: ADME, organism-based
# Recorded conditions: in vivo, dose 0.91 mg/kg

# Smiles code, bioavailability / %
data = [
    ("Cc1c[nH]c2nccc(Oc3c(F)cc(Nc4cc(Cl)nc(N)n4)cc3F)c12", 48),
]
